Just for reference, ChEMBL document CHEMBL3865819 is where these values come from.

- SYSTEM TESTED: hERG (KCNH2) (Homo sapiens, UniProt Q12809)
- Sequence (Q12809 whole entry): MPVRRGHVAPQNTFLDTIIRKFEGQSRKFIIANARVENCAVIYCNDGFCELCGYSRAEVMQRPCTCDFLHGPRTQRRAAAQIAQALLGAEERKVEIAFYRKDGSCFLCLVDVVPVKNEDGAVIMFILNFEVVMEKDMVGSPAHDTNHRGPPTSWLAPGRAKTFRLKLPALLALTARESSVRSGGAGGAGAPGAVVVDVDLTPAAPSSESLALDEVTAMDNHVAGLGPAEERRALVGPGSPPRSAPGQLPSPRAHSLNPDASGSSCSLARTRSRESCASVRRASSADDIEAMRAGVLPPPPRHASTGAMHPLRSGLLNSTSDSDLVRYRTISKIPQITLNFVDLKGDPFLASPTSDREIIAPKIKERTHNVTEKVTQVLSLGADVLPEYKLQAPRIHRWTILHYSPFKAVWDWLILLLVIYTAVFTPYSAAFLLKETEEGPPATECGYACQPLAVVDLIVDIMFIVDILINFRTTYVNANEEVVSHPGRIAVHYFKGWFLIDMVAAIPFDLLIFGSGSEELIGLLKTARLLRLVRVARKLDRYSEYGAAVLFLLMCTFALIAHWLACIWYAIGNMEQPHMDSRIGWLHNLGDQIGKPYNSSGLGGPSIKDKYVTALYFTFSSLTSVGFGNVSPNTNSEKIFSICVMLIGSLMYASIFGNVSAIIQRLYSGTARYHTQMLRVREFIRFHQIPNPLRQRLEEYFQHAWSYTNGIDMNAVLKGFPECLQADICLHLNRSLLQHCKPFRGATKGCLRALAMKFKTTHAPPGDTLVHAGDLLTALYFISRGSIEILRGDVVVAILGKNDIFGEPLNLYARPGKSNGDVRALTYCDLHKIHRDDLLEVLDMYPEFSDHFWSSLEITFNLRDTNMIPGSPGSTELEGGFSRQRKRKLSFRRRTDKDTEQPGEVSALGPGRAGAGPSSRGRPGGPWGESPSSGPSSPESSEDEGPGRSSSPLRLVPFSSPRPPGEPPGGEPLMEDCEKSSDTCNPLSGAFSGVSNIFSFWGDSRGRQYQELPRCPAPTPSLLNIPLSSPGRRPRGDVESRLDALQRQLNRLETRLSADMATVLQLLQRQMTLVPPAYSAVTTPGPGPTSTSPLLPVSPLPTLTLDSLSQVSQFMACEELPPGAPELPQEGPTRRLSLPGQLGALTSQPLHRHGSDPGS
- EXPERIMENT NOTES: Inhibition of human ERG expressed in HEK293 cells assessed as decrease in channel current at 10 uM after 3 mins at -80 mV holding potential by automated patch-clamp electrophysiology assay
- Type: cell-based
- PARTICULARS: HEK293 cells that express hERG
MEASURED METRIC: inhibition at 0.05 h, 10 µM (%)
Write down the numeric answer in % and omit the unit.

# SMILES DATA, SYSTEM TESTED, inhibition at 0.05 h, 10 µM (%)
measured = [
    ("CCC(=O)O[C@@H]1[C@@H]2[C@@H](OC(C)=O)[C@@]34CO[C@@](C)([C@H](OC(C)=O)[C@@]2(OC(C)=O)C[C@@H]1C)[C@@H]3[C@@H](C(C)(C)OC(C)=O)C=CC4=O", "hERG (KCNH2) (Homo sapiens, UniProt Q12809)", 13),
]

Can you look up the measured inhibition at 0.05 h, 10 µM of CCC(=O)O[C@@H]1[C@@H]2[C@@H](OC(C)=O)[C@@]34CO[C@@](C)([C@H](OC(C)=O)[C@@]2(O)C[C@@H]1C)[C@@H]3[C@@H]1[C@@H](C[C@]1(C)OC(C)=O)[C@@H](OC(=O)c1ccccc1)C4=O for me?
21

Can you look up the measured inhibition at 0.05 h, 10 µM of CC(=O)O[C@@H]1[C@H]2[C@@H](OC(=O)c3ccccc3)[C@@H](C)C[C@]2(OC(C)=O)[C@@H](OC(C)=O)[C@]2(C)OC[C@]13C(=O)C=C[C@H](C(C)(C)OC(C)=O)[C@@H]23 for me?
20

Can you look up the measured inhibition at 0.05 h, 10 µM of CC(=O)O[C@@H]1C[C@H]2[C@@H]([C@@H]3[C@]1(COC(=O)c1cccnc1)[C@H](OC(=O)c1ccccc1)[C@H]1[C@@H](OC(=O)C(C)C)[C@@H](C)C[C@]1(O)C(=O)[C@@]3(C)OC(C)=O)C2(C)C for me?
29

* * *

Below, each entry is listed alongside its reported inhibition at 0.05 h, 10 µM.
- SYSTEM TESTED: hERG (KCNH2) (Homo sapiens)
- EXPERIMENT NOTES: Inhibition of human ERG expressed in HEK293 cells assessed as decrease in channel current at 10 uM after 3 mins at -80 mV holding potential by automated patch-clamp electrophysiology assay
- Assay type: cell-based
- PARTICULARS: HEK293 cells that express hERG
Write down the numeric answer in % and omit the unit.

Can you look up the measured inhibition at 0.05 h, 10 µM of CC(=O)OC1O[C@@]2(C)[C@H](OC(=O)c3ccccc3)[C@@]3(OC(C)=O)C[C@H](C)[C@H](OC(=O)C(C)C)[C@@H]3[C@@H](OC(C)=O)[C@@]13[C@H](OC(=O)c1cccnc1)C[C@H]1[C@@H]([C@@H]23)C1(C)C (stereo not given in full) for me?
68

Can you look up the measured inhibition at 0.05 h, 10 µM of CCC(=O)O[C@@H]1[C@@H]2[C@@H](OC(C)=O)[C@@]34CO[C@@](C)([C@H](OC(C)=O)[C@@]2(OC(C)=O)C[C@]1(C)OC(=O)c1ccccc1)[C@@H]3[C@@H]1[C@@H](C[C@]1(C)OC(C)=O)[C@@H](OC(=O)C(C)CC)C4=O (stereo not given in full) for me?
31

Can you look up the measured inhibition at 0.05 h, 10 µM of CCC(C)C(=O)O[C@H]1C(=O)[C@@]23CO[C@@](C)([C@H](OC(C)=O)[C@@]4(OC(C)=O)C[C@](C)(OC(=O)c5ccccc5)[C@H](OC(=O)C(C)C)[C@@H]4[C@H]2OC(C)=O)[C@@H]3[C@@H]2[C@H]1C[C@]2(C)OC(C)=O (stereo not given in full) for me?
30

Can you look up the measured inhibition at 0.05 h, 10 µM of CCC(=O)O[C@@H]1[C@@H]2[C@@H](OC(C)=O)[C@@]34CO[C@@](C)([C@H](OC(C)=O)[C@@]2(OC(C)=O)C[C@H]1C)[C@@H]3[C@@H]1[C@@H](C[C@]1(C)OC(C)=O)[C@@H](OC(=O)C(C)C)C4=O for me?
23

Can you look up the measured inhibition at 0.05 h, 10 µM of CCC(=O)O[C@@H]1[C@@H]2[C@@H](OC(C)=O)[C@@]34CO[C@@](C)([C@H](OC(C)=O)[C@@]2(OC(C)=O)C[C@]1(C)O)[C@@H]3[C@@H]1[C@@H](C[C@]1(C)OC(C)=O)[C@@H](OC(=O)C(C)CC)C4=O (stereo not given in full) for me?
20
